- tested_on: Factor X, P00742
- Sequence (P00742 whole entry, looked up): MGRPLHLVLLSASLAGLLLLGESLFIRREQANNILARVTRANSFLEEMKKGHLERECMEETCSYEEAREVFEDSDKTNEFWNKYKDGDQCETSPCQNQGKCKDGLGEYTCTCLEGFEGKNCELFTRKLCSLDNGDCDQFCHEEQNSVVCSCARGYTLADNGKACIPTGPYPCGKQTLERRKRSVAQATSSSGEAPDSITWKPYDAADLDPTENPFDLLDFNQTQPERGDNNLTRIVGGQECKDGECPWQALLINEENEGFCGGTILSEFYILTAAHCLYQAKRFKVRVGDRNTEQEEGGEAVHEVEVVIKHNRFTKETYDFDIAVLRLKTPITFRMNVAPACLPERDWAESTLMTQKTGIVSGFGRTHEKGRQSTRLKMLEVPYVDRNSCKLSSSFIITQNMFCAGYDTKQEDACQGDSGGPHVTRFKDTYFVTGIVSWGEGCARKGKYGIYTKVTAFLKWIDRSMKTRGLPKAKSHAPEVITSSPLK
property: KM (µM)

- protein: "FIXa-K247N/N249S/T343R/R403E/E410N (protein) chain 1: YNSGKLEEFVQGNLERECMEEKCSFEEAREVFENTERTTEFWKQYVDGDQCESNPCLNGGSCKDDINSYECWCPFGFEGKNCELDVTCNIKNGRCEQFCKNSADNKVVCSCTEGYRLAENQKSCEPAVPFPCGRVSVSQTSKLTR chain 2: VVGGEDAKPGQFPWQVVLNGKVDAFCGGSIVNEKWIVTAAHCVETGVKITVVAGEHNIEETEHTEQNRSVIRIIPHHNYNAAINKYNHDIALLELDEPLVLNSYVTPICIADKEYTNIFLKFGSGYVSGWGRVFHKGRSALVLQYLRVPLVDRATCLRSTKFRIYNNMFCAGFHEGGRDSCQGDSGGPHVTEVEGTSFLTGIISWGEECAMKGKYGIYTKVSEYVNWIKNKTKLT"
  result: 0.06

Data provenance: patent US20210238260
